Catalogue of compounds with associated IC50
# Test system: KB
# measurement protocol: Cytotoxicity against human KB cells assessed as reduction in cell viability incubated for 3 days
# Type: functional, cell-based
# conditions used: 72 h
Where a SMILES comes first, the peptide text is derived from it.
observation type: IC50 (µM)

CC[C@H](C)[C@@H]1NC(=O)CNC(=O)[C@H](CCSC)NC(=O)CNC(=O)[C@@H]2CCCN2C(=O)[C@H](CC(C)C)NC(=O)[C@H](Cc2ccc(O)cc2)NC1=O (cyclo(GIYLPGM)) : 16.5
CC(C)C[C@@H]1NC(=O)CNC(=O)[C@H](Cc2ccccc2)NC(=O)[C@H](Cc2ccc(O)cc2)NC(=O)[C@@H]2CCCN2C(=O)CNC1=O [Cherimolacyclopeptide E] (cyclo(FGLGPY)) : 0.017
CC[C@H](C)[C@@H]1NC(=O)CNC(=O)[C@H](CCSC)NC(=O)CNC(=O)[C@@H]2CCCN2C(=O)[C@H](CCSC)NC(=O)[C@@H]2CCCN2C(=O)[C@H](CC(C)C)NC(=O)[C@H](Cc2ccc(O)cc2)NC1=O (cyclo(GIYLPMPGM)) : 0.06
CC[C@H](C)[C@@H]1NC(=O)[C@@H]2CCCN2C(=O)[C@H](C(C)C)NC(=O)[C@H](C)NC(=O)CNC(=O)[C@@H]2CCCN2C(=O)[C@H](C)NC(=O)[C@H](Cc2ccc(O)cc2)NC1=O (cyclo(APGAVPIY)) : 0.52
